Readings of MIC for the listed compounds
test system: Acinetobacter baumannii; test: Antibacterial activity against Acinetobacter baumannii BAA1605; assay type: functional
# output: bare number, implied unit µg/mL

The examples below pair each entry with its known result.
# compound, MIC (µg/mL)
records = [
    ("O=C(O)c1cn(C2CC2)c2cc(N3CCNCC3)c(F)cc2c1=O [CIPROFLOXACIN]", 2),
    ("COc1ccc(NNC(=O)c2ccc(F)cn2)cc1", 0.5),
    ("O=C(NNc1ccc(Cl)cc1)c1ccccn1", 0.25),
    ("COc1cccc(NNC(=O)c2ccc(F)cn2)c1", 0.5),
    ("O=C(NNc1cccc(F)c1)c1ccc(F)cn1", 0.5),
]

Note down MIC recorded for `O=C(NNc1ccc(F)cc1)c1ccc(F)cn1`
0.25
